Protein target, amino acids: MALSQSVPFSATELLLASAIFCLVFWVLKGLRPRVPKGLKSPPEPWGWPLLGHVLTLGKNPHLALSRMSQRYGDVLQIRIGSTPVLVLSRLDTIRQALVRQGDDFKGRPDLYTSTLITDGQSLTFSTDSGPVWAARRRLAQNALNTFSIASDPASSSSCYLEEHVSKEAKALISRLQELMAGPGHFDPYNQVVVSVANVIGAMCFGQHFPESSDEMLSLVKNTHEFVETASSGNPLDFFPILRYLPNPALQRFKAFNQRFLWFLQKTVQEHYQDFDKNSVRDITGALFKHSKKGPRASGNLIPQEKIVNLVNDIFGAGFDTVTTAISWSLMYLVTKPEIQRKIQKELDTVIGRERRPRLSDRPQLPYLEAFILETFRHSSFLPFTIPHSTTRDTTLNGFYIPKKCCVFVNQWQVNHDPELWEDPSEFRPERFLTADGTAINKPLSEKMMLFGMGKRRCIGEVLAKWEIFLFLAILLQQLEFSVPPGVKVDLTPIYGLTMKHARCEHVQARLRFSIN
recorded_metric: IC50

Ask | Fill in: IC50 of `C#CC1(NC(=O)C(=O)c2c(C)c(C(=O)Nc3ccc(F)c(C#N)c3)n(C)c2C)COC1` is ___
Reply | > 50 µM

---

assay: Oral bioavailability in Sprague-Dawley rat at 5 mg/kg by LC-MS/MS analysis; assay type: ADME, organism-based; details: in vivo
recorded_metric: bioavailability

Ask | Fill in: bioavailability of `C#CC1(NC(=O)C(=O)c2c(C)c(C(=O)Nc3ccc(F)c(C#N)c3)n(C)c2C)COC1` is ___
Reply | 62.8%

---

system: Cav1.2; test: Inhibition of Cav1.2 (unknown origin) expressed in mammalian cells at 10 uM by automated patch-clamp method; type: toxicity, cell-based, Homo sapiens; details: mammalian cells expressing Cav1.2
recorded_metric: IC50

Ask | Fill in: IC50 of `C#CC1(NC(=O)C(=O)c2c(C)c(C(=O)Nc3ccc(F)c(C#N)c3)n(C)c2C)COC1` is ___
Reply | > 10 µM

---

experiment: Plasma protein binding in human at 2 uM incubated for 4 to 24 hrs by equilibrium dialysis method; assay type: ADME, cell-free; conditions: time 4-24 hrs, read-out: PPB (converted)
recorded_metric: fraction unbound at 2 µM
Give the value as a plain number.

Ask | Fill in: fraction unbound at 2 µM of `C#CC1(N(COP(=O)([O-])[O-])C(=O)C(=O)c2c(C)c(C(=O)Nc3ccc(F)c(C#N)c3)n(C)c2C)COC1.[Na+].[Na+]` is ___
Reply | 0.11

---

molecular target: Voltage-gated inwardly rectifying potassium channel KCNH2 (Homo sapiens); experiment: Inhibition of hERG expressed in mammalian cells at 10 uM by automated patch-clamp method
Sequence (Q12809 whole entry): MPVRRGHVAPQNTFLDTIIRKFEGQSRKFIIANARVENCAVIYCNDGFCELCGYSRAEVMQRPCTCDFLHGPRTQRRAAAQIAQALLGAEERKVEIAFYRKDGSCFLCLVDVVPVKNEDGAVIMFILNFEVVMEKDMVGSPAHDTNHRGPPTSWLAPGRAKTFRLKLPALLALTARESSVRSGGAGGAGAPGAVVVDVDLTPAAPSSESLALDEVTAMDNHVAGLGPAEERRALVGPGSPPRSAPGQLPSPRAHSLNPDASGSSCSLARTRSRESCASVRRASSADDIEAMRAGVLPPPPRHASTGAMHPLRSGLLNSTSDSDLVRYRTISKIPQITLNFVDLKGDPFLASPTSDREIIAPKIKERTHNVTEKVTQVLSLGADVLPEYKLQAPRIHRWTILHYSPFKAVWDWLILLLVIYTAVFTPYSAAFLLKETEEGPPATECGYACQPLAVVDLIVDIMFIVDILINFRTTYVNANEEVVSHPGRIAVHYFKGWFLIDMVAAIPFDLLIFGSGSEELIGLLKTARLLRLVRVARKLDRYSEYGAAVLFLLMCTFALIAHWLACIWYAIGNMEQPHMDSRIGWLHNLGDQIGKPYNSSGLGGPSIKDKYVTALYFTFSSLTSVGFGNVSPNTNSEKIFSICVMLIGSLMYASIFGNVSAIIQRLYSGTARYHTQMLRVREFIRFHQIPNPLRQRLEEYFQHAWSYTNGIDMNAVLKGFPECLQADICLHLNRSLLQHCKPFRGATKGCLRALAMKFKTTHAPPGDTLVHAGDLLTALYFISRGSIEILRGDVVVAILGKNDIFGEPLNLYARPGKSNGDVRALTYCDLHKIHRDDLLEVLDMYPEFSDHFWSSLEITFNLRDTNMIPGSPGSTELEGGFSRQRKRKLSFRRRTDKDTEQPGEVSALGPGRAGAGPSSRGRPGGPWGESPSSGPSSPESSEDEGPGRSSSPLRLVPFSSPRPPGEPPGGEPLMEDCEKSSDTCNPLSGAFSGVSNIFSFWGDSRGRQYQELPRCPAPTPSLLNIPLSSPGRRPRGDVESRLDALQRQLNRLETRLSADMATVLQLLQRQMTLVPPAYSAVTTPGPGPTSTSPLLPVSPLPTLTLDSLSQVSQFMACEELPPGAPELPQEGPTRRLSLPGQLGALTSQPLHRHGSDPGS
pIC50: −log10 of the molar value.
recorded_metric: pIC50

Ask | Fill in: pIC50 of `C#CC1(NC(=O)C(=O)c2c(C)c(C(=O)Nc3ccc(F)c(C#N)c3)n(C)c2C)COC1` is ___
Reply | < 5.00

Ask | Fill in: pIC50 of `C#CC1(N(COP(=O)([O-])[O-])C(=O)C(=O)c2c(C)c(C(=O)Nc3ccc(F)c(C#N)c3)n(C)c2C)COC1.[Na+].[Na+]` is ___
Reply | < 3.52

---

test: Cmax in Cynomolgous monkey at 5 mg/kg, po by LC-MS/MS analysis; assay type: ADME, organism-based, Macaca fascicularis; conditions: cynomolgus monkey, in vivo
recorded_metric: Cmax

Ask | Fill in: Cmax of `C#CC1(NC(=O)C(=O)c2c(C)c(C(=O)Nc3ccc(F)c(C#N)c3)n(C)c2C)COC1` is ___
Reply | 490 ng/mL
